B1: PhoQ; a variant is named by its letters at X, in order, P23837 (parent)
chain: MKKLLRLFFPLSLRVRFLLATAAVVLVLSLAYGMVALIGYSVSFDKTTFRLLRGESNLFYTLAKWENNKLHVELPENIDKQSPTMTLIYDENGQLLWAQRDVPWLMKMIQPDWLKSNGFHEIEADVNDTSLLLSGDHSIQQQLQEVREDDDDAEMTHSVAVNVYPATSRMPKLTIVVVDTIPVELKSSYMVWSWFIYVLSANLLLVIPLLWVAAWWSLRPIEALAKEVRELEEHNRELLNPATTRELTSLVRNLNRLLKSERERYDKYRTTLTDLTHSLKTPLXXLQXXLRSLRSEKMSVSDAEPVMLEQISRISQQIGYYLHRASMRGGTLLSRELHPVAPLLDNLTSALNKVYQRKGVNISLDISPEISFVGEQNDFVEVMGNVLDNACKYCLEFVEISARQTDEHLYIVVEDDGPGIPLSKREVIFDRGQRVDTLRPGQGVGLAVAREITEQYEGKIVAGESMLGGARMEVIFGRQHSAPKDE

- Variants of: B1
- measurement_description: enrichment ratio after two sorts for PhoP signalling (ratio (wild type AVST 3.29)); higher = more functional
- condition_set: with PhoP (E. coli)
Over roughly 140,000 sequences, “enrichment ratio after two sorts for PhoP signalling” has its median near 0; the highest 2% begin near 11. The sample holds the highest values, similar sequences and a random draw of the others, so the mix is not that of the screen.
readout_label: enrichment ratio
Note: the reply should be a number with no unit written.

mutation_spec=TQWH reading=21.9
mutation_spec=TSSC reading=12.8

Give recorded enrichment ratio. AFVG 4.66
